# TGI annotations
# System: NCI-H23 lung
# assayMethodText: NCI tumour cell line growth inhibition, 48 h

Worked examples follow.
>>> df
                                   compound  propertymeasured  recordedresult
0  CC(C)[C@H]1CO[C@]2(C)[C@@H]3CN(Cc4ccccc4)C[C@@H]3C(=O)N12               TGI        > 100 µM
1  OC(c1cc(-c2ccccc2)nc2ccc(Cl)cc12)C1CCCCN1 (stereo not given)               TGI         3.42 µM
2  COC12OC3(C4OC41)C(C(=O)O[C@H]3CO[Si](C)(C)C(C)(C)C)C2C(=O)Oc1ccccc1 (stereo not given in full)               TGI        > 100 µM
3  CCOC(=O)CSc1nc(N)c2c(-c3ccc(OC)c(OC)c3)c3c(nc2n1)CCCC3               TGI        > 100 µM

# input for lookup
Query N#CC12C(=O)N3C(=NC(c4ccccc4)NC3c3ccccc3)C1(C#N)C(c1ccccc1)NC1=C2CCC1 (stereo not given) yields TGI of > 100 µM

---

The following compounds are shown together with reported TGI values.
# System: T-47D breast
# assayMethodText: NCI tumour cell line growth inhibition, 48 h

Solved cases (4 shown):
>>> df
                            structurestring  propertymeasured  recordedresult
0        N=c1oc2cc(O)ccc2cc1C(=O)NCc1ccccc1               TGI         33.7 µM
1  COc1cccc2c1c(C(=O)C(=O)Nc1cc(C)no1)cn2Cc1ccc(F)cc1               TGI        > 100 µM
2  NCCOCCOCCNc1nc(Cc2ccccc2)nc(NCCCN2CCCC2=O)n1               TGI        > 100 µM
3  O=C1/C(=C\c2c[nH]c3ccccc23)c2ccccc2N1c1c(Cl)cccc1Cl               TGI         5.62 µM

Switching to the query record.
// TGI lookup, compound = N#Cc1c(N2CCCC2)[nH]c(=O)c(C(c2c(Cl)cccc2Cl)c2c(O)c(C#N)c(N3CCCC3)[nH]c2=O)c1O , result: 13.4 µM

---

Each item that follows carries a reported TGI.
# Tested on: SK-MEL-2 melanoma
# assayMethodText: NCI tumour cell line growth inhibition, 48 h
# output: bare number, implied unit µM

molecule	unitLabel	TGI
O=[N+]([O-])C(C(Cl)=C(Cl)Cl)=C(N(Cc1ccccc1)Cc1ccccc1)N(Cc1ccccc1)Cc1ccccc1	µM	98.3
C/C(=N/NC(=S)Nc1ccc([N+](=O)[O-])cc1)c1cccc(/C(C)=N\NC(=S)Nc2ccc([N+](=O)[O-])cc2)n1	µM	23.6
CC(=O)OCOC(=O)CN(CC(=O)OCOC(C)=O)Cc1cc2c(cc1OC(C)=O)Oc1cc(OC(C)=O)c(CN(CC(=O)OCOC(C)=O)CC(=O)OCOC(C)=O)cc1C21OC(=O)c2ccccc21	µM	2.33
CCOC(=O)C1(C(=O)OCC)Nc2cccnc2N(C)N1	µM	37

Lookup result for OC(c1cc(-c2ccccc2)nc2ccc(Cl)cc12)C1CCCCN1 (centres undefined) ; measured TGI: 5.02

---

# Test system: K-562 leukemia
# assayMethodText: NCI tumour cell line growth inhibition, 48 h; in the data active means GI50 below about 0.43 µM; inactive means the rest
Use one of these outcomes when replying: active, inactive

### Prompt Kindly provide the recorded test outcome for the following compound: O=C1c2cccnc2C(=O)c2nc3cc(N4CCN(C5CC5)CC4)ccc3nc21
### Response inactive

---

# System: A498 renal
# assayMethodText: NCI tumour cell line growth inhibition, 48 h
propertyMeasured: TGI

>>> df
                                   compound  recordedresult
0  Cc1ccc(NC(=O)C(=O)C(C#N)c2ccccc2C)cc1C (configuration not stated)        > 100 µM

Value (TGI, A498 renal) for record O=C(CCC(NC(=O)OCc1ccccc1)C(=O)OCc1ccccc1)Nc1ccc(OCc2ccccc2)cc1 (configuration not stated) = > 10 µM

A498 renal assay, compound COc1ccc(/C=C2\C(=O)N(C3OC(COC(C)=O)C(OC(C)=O)C(OC(C)=O)C3OC(C)=O)c3ccccc3N=C2N)cc1 (configuration not stated) , recorded TGI = > 100 µM

Item CC(=O)N1C(=O)/C(=C\C(=O)c2ccc([N+](=O)[O-])cc2)c2ccccc21 was tested on A498 renal; the reported TGI is > 100 µM

A498 renal data for CN(CC1(CO)CCC1)c1cc(Cl)nc(N)n1 ; its TGI: > 100 µM

Summary: COc1cccc2c1c(C(=O)C(=O)Nc1cc(C)no1)cn2Cc1ccc(F)cc1 , A498 renal, TGI = > 67.5 µM

---

Quick reference: GI50 of the listed items.
# Test system: NCI-H226 lung
# assayMethodText: NCI tumour cell line growth inhibition, 48 h

Please review the entries below; each comes with its answer.
>>> print(df.to_string())
                                   compound  propertymeasured  recordedresult
0  COc1cccc(-n2ncc3c(N/N=C/c4ccc(C(=O)NCCN(C)C)cc4)ncnc32)c1              GI50         9.36 µM
1  NCCOCCOCCNc1nc(Cc2ccccc2)nc(NCCCN2CCCC2=O)n1              GI50        > 100 µM
2  COc1cccc2c1c(C(=O)C(=O)Nc1cc(C)no1)cn2Cc1ccc(F)cc1              GI50         36.2 µM

Sure, the documented GI50 for CCCCC(CC)CN=C(N)NC(N)=NCCCCCCN=C(N)NC(N)=NCC(CC)CCCC (stereo not given) is 2.38 µM

Notebook: O=C(CCCCCCC(=O)Nc1ccc(N(CCCl)CCCl)cc1)NO , GI50 read as 4.01 µM

---

# Test system: MDA-MB-231 breast
# assayMethodText: NCI tumour cell line growth inhibition, 48 h; in the data active means GI50 below about 0.43 µM; inactive means the rest
Use one of these outcomes when replying: active, inactive

Known results for compounds:
compound	classification
N=C(N)c1ccc(-c2ccc(-c3cc(Cl)cc(Cl)c3)o2)nc1	inactive
COc1cccc2c1c(C(=O)C(=O)Nc1cc(C)no1)cn2Cc1ccc(F)cc1	inactive
Cn1cc(-c2ccc3occ(-c4cccc(-c5ccncc5)c4)c3n2)cn1	inactive
Cn1cccc1-c1cc(-c2cccs2)nc(N)c1C#N	inactive
COc1ccc(-c2nn3c(-c4cc(F)c(Cl)cc4Cl)nnc3s2)cc1	inactive

### Prompt Recorded call for OC(c1cc(-c2ccccc2)nc2ccc(Cl)cc12)C1CCCCN1 (stereo not given) ?
### Response inactive

### Prompt Call for entry COc1ccc(-c2csc(N(C(=O)N3CCN(c4cc5c(cc4F)c(=O)c(C(=O)O)cn5C4CC4)CC3)c3ccccc3)n2)cc1 :
### Response inactive

### Prompt Test call for this compound, please: COc1ccc2nc(-c3ccc(-c4noc(-c5cc(OC)c(OC)c(OC)c5)n4)cc3)[nH]c2c1
### Response inactive

### Prompt Could you check what this test reported for COc1ccc2c(c1)/C(=C\c1c(C)nc3sccn13)C(=O)N2 ?
### Response active

### Prompt Just curious, what result did O=C1/C(=C\c2c[nH]c3ccccc23)c2ccccc2N1c1c(Cl)cccc1Cl get here?
### Response inactive

### Prompt Which outcome was assigned to Oc1cccc2ccc(N/N=C/c3cc(CN4CCCCC4)c(O)c4ncccc34)nc12 in this test?
### Response active

### Prompt Assay result, entry COc1ccc(/C=C2\CCCC3=C2N=C2SC(C)=NN2C3c2ccc(OC)c(OC)c2)cc1OC (stereo not given) — outcome?
### Response inactive

### Prompt # lookup: test call for O=C(NCCO)Nc1ccc(-c2nc(N3CCOCC3)c3cccn3n2)cc1
### Response active

### Prompt // return assay outcome for CCc1nccc2c1nc(-c1nonc1N)n2CC
### Response inactive

### Prompt For CC(C)c1cc(-c2n[nH]c(=O)n2-c2ccc3c(ccn3C)c2)c(O)cc1O , which call appears in the assay record?
### Response active

### Prompt Field: outcome | Entry: COC(=O)[C@H](C[C@H](Cc1ccccc1)NC(=O)c1csc([C@@H](C[C@H](C(C)C)N(C)C(=O)[C@@H](NC(=O)[C@H]2CCCCN2C)C(C)C)OC(C)=O)n1)NC(=O)OCc1ccccc1
### Response active

### Prompt What is the recorded call for this compound in the test? CC1SC(c2ccccc2)N(CCc2cccs2)C1=O (stereo not given)
### Response inactive

### Prompt Please share the test call associated with CCN(CC)CC(C)Nc1ccc([N+](=O)[O-])c2sc3ccccc3c(=O)c12 (stereo not given) .
### Response inactive

### Prompt Outcome logged for Cc1ccc(-c2cn3ccnc3c(-c3ccc(Cl)cc3)n2)cc1 in this assay:
### Response inactive

### Prompt Give the logged outcome of this assay for the following compound: COc1ccc(-c2c3c(N)nc(-c4ccncc4)nc3nc3c2c(C)nn3-c2ccccc2)cc1
### Response inactive
